For each of the compounds below, state its fraction unbound.
Experiment: Plasma protein binding in rat
Format: ADME, cell-free
Details: read-out: PPB (converted)
Answers are plain numbers.

CCNC(=O)Nc1nc2cc(-c3cnc(N4CCC(C(=O)O)CC4)nc3)cc(-c3ccccn3)c2s1 = 0.007

Consider the additional compound presented here.
# compound CCNC(=O)Nc1nc2cc(-c3cnc(N4CCC(C)(C(=O)O)CC4)nc3)cc(-c3ccccn3)c2s1 ; its fraction unbound = 0.007

###

Task for the reader: assign each of the following compounds its reported bioavailability.
Experiment: Oral bioavailability in mouse at 3 mg/kg
Format: ADME, organism-based
Settings: in vivo

A selection of reference data follows.
CCNC(=O)Nc1nc2cc(-c3ccc(N4CCC(C)(C(=O)O)CC4)nc3)cc(-c3ccccn3)c2s1 = 33%
CCNC(=O)Nc1nc2cc(-c3cnc(N4CCC(CC)(C(=O)O)CC4)nc3)cc(-c3ccccn3)c2s1 = 87%

Looking up CCNC(=O)Nc1nc2cc(-c3cnc(N4CCC(C(=O)O)CC4)nc3)cc(-c3ccccn3)c2s1 , I see its bioavailability listed as 8%

###

Test: Solubility of the compound in PBS at pH 7.4 after 24 hrs by turbidimetric analysis
Assay type: physicochemical
measure: solubility kinetic at 24 h

A selection of reference data follows.
CCNC(=O)Nc1nc2cc(-c3cnc(N4CCC(C(=O)O)(c5ccccc5)CC4)nc3)cc(-c3ccccn3)c2s1 = 0.0125 mg/mL
CCNC(=O)Nc1nc2cc(-c3cnc(N4CCC(C)(C(=O)O)C4)nc3)cc(-c3ccccn3)c2s1 (configuration not stated) = > 0.8 mg/mL
CCNC(=O)Nc1nc2cc(-c3cnc(N4CCC(O)(C(=O)O)CC4)nc3)cc(-c3ccccn3)c2s1 = 0.1 mg/mL
CCNC(=O)Nc1nc2cc(-c3cnc(N4CCC(C(=O)O)(C(F)(F)F)CC4)nc3)cc(-c3ccccn3)c2s1 = > 0.8 mg/mL
CCNC(=O)Nc1nc2cc(-c3cnc(N4CCC(N)(C(=O)O)CC4)nc3)cc(-c3ccccn3)c2s1 = 0.025 mg/mL
CCNC(=O)Nc1nc2cc(-c3ccc(N4CCC(C)(C(=O)O)CC4)nc3)cc(-c3ccccn3)c2s1 = > 0.8 mg/mL

Provide the reported solubility kinetic at 24 h of each entry below, same order.
1. CCNC(=O)Nc1nc2cc(-c3cnc(N4CCC(C)(C(=O)O)CC4)nc3)cc(-c3ccccn3)c2s1
2. CCNC(=O)Nc1nc2cc(-c3cnc(N4CCC(CC)(C(=O)O)CC4)nc3)cc(-c3ccccn3)c2s1
3. CCNC(=O)Nc1nc2cc(-c3cncc(N4CCC(C)(C(=O)O)CC4)c3)cc(-c3ccccn3)c2s1
4. CCNC(=O)Nc1nc2cc(-c3cnc(N4CCC(C)(C(=O)O)CC4)cn3)cc(-c3ccccn3)c2s1
5. CCNC(=O)Nc1nc2cc(-c3cnc(N4CCCCC4(C)C(=O)O)nc3)cc(-c3ccccn3)c2s1 (configuration not stated)

Solution:
1. > 0.8 mg/mL
2. > 0.8 mg/mL
3. > 0.8 mg/mL
4. > 0.8 mg/mL
5. 0.00625 mg/mL

Hi, could you look up solubility kinetic at 24 h for each item in my list?
1. CCNC(=O)Nc1nc2cc(-c3cnc(N4CCCC4(C)C(=O)O)nc3)cc(-c3ccccn3)c2s1 (configuration not stated)
2. CCNC(=O)Nc1nc2cc(-c3cccnc3)cc(-c3ccccn3)c2s1
3. CCNC(=O)Nc1nc2cc(-c3cnc(N4CCCC(C)(C(=O)O)CC4)nc3)cc(-c3ccccn3)c2s1 (configuration not stated)
4. CCNC(=O)Nc1nc2cc(-c3ccc(C(=O)O)nc3)cc(-c3ccccn3)c2s1
5. CCNC(=O)Nc1nc2cc(-c3cnc(N4CCC(C(=O)O)CC4)nc3)cc(-c3ccccn3)c2s1
6. CCNC(=O)Nc1nc2cc(-c3cnc(N4CCC(C(=O)O)(S(C)(=O)=O)CC4)nc3)cc(-c3ccccn3)c2s1

Solution:
["> 0.8 mg/mL", "0.00625 mg/mL", "> 0.8 mg/mL", "0.05 mg/mL", "> 0.8 mg/mL", "> 0.8 mg/mL"]

###

Test: Intrinsic clearance in mouse liver microsomes at 10 uM by LC-MS analysis
Type: ADME, Microsome
Conditions: read-out: CLH
I'd appreciate it if you could supply CLint scaled at 10 µM values for the items below.

Some entries whose results are on file:
CCNC(=O)Nc1nc2cc(-c3cnc(N4CCC(C)(C(=O)O)CC4)cn3)cc(-c3ccccn3)c2s1 = < 5.8 mL/min/kg
CCNC(=O)Nc1nc2cc(-c3ccc(N4CCC(C)(C(=O)O)CC4)nc3)cc(-c3ccccn3)c2s1 = < 5.8 mL/min/kg

Documented CLint scaled at 10 µM of CCNC(=O)Nc1nc2cc(-c3cnc(N4CCC(C(=O)O)(c5ccccc5)CC4)nc3)cc(-c3ccccn3)c2s1 : < 5.8 mL/min/kg

###

Test: AUC in mouse at 3 mg/kg, iv
Assay type: ADME, organism-based
Design: dose 3 mg/kg, route intravenous
Settings: plasma
measure: AUC

CCNC(=O)Nc1nc2cc(-c3ccc(N4CCC(C)(C(=O)O)CC4)nc3)cc(-c3ccccn3)c2s1 = 7600 ng·h/mL
CCNC(=O)Nc1nc2cc(-c3cnc(N4CCC(CC)(C(=O)O)CC4)nc3)cc(-c3ccccn3)c2s1 = 14300 ng·h/mL

Noted for CCNC(=O)Nc1nc2cc(-c3cnc(N4CCC(C(=O)O)CC4)nc3)cc(-c3ccccn3)c2s1 : its AUC reads 900 ng·h/mL

###

Target: DNA gyrase (Staphylococcus aureus, UniProt P0A0K8+P20831)
Sequence (P0A0K8 whole entry): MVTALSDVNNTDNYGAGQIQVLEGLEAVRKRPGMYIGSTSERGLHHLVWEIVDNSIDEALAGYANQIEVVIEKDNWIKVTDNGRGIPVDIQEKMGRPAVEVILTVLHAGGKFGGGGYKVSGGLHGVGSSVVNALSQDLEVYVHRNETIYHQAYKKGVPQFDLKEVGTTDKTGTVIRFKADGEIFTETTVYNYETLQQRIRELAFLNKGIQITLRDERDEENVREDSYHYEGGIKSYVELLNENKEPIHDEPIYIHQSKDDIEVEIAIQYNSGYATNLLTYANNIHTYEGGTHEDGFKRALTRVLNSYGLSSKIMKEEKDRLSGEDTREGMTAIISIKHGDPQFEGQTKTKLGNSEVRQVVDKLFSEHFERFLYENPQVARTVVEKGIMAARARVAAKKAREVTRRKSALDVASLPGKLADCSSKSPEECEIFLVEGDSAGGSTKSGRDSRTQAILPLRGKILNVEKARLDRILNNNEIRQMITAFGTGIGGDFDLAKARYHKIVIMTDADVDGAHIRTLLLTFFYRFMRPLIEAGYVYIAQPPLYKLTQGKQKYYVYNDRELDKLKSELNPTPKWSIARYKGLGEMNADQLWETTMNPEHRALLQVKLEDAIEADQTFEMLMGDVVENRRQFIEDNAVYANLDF
Sequence (P20831 whole entry): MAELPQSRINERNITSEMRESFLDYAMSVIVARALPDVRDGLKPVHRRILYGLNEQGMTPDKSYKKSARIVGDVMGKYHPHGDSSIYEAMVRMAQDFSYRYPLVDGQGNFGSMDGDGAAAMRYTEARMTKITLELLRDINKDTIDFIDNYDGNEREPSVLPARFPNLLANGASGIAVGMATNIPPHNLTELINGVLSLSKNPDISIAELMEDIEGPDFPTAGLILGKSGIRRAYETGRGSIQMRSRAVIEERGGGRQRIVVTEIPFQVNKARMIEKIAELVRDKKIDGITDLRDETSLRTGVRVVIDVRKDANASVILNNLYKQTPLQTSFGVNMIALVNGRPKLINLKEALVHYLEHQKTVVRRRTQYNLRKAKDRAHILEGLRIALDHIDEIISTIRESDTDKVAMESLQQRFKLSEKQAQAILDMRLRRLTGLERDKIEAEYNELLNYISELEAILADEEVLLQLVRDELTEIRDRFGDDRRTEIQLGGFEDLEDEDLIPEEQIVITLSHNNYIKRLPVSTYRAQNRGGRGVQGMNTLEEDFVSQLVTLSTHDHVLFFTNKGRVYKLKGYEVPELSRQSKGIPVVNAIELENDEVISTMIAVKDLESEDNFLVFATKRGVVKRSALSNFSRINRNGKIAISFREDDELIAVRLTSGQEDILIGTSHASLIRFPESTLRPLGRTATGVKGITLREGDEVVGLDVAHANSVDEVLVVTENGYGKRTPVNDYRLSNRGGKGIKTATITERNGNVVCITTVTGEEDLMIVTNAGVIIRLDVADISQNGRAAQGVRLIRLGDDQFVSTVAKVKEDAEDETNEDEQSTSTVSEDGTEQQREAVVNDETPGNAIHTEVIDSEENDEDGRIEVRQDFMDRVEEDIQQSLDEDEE
Test: Inhibition of Staphylococcus aureus DNA gyrase ATPase subunit GyrA2/GyrB2 after 60 mins by malachite green staining assay
Please respond with reported pIC50 for every item in the list.
Answers are plain numbers, as −log10 of the molar value.

# count of solved cases: 2
CCNC(=O)Nc1nc2cc(-c3cnc(N4CCC(C(=O)O)CC4)nc3)cc(-c3ccccn3)c2s1 = 7.70
CCNC(=O)Nc1nc2cc(-c3ccc(C(=O)O)nc3)cc(-c3ccccn3)c2s1 = 8.62

Provide the reported pIC50 of each entry below, same order.
1. CCNC(=O)Nc1nc2cc(-c3cnc(N4CCC(C(=O)O)(C(F)(F)F)CC4)nc3)cc(-c3ccccn3)c2s1
2. CCNC(=O)Nc1nc2cc(-c3cnc(N4CCCC4(C)C(=O)O)nc3)cc(-c3ccccn3)c2s1 (stereo not drawn)
3. CCNC(=O)Nc1nc2cc(-c3cnc(N4CCC(CC)(C(=O)O)CC4)nc3)cc(-c3ccccn3)c2s1
4. CCNC(=O)Nc1nc2cc(-c3cnc(N4CCC(C)(C(=O)O)CC4)cn3)cc(-c3ccccn3)c2s1
5. CCNC(=O)Nc1nc2cc(-c3nc(N4CCC(C)(C(=O)O)CC4)ns3)cc(-c3ccccn3)c2s1
6. CCNC(=O)Nc1nc2cc(-c3cnc(N4CCC(C)(C(=O)O)CC4)nc3)cc(-c3ccccn3)c2s1

Solution:
7.55
8.00
7.65
7.41
6.97
7.81

###

Target: DNA gyrase (Staphylococcus aureus, UniProt P0A0K8+P20831)
Experiment: Inhibition of Staphylococcus aureus DNA gyrase ATPase subunit GyrA2/GyrB2 after 60 mins by malachite green staining assay
measure: IC50 (nM)
One number for each entry, in nM.

Some solved cases for reference:
CCNC(=O)Nc1nc2cc(-c3cnc(N4CCC(C)(C(=O)O)C4)nc3)cc(-c3ccccn3)c2s1 (stereo not given) = 79.4
CCNC(=O)Nc1nc2cc(-c3ccc(N4CCC(C)(C(=O)O)CC4)nc3)cc(-c3ccccn3)c2s1 = 23.2

Count: 3. Required value per item: IC50.
1. CCNC(=O)Nc1nc2cc(-c3cccnc3)cc(-c3ccccn3)c2s1
2. CCNC(=O)Nc1nc2cc(-c3cnc(N4CCCC(C)(C(=O)O)CC4)nc3)cc(-c3ccccn3)c2s1 (stereo not given)
3. CCNC(=O)Nc1nc2cc(-c3cncc(N4CCC(C)(C(=O)O)CC4)c3)cc(-c3ccccn3)c2s1

Solution:
[37.3, 11.3, 29]

###

Assay: Clearance in mouse at 3 mg/kg, iv
Type: ADME, organism-based
Set-up: dose 3 mg/kg, route intravenous
Details: in vivo
Field: clearance. Provide a value for each of the molecules that follow.
Give bare numbers, in mL/min/kg.

CCNC(=O)Nc1nc2cc(-c3ccc(N4CCC(C)(C(=O)O)CC4)nc3)cc(-c3ccccn3)c2s1 = 6.5
CCNC(=O)Nc1nc2cc(-c3cnc(N4CCC(C(=O)O)CC4)nc3)cc(-c3ccccn3)c2s1 = 55

Now let's try a different one.
Summary for this molecule, CCNC(=O)Nc1nc2cc(-c3cnc(N4CCC(CC)(C(=O)O)CC4)nc3)cc(-c3ccccn3)c2s1 : clearance is 3.5

###

Target: Topoisomerase IV (Staphylococcus aureus, UniProt P0C1S7+P0C1U9)
Sequence (P0C1U9 whole entry): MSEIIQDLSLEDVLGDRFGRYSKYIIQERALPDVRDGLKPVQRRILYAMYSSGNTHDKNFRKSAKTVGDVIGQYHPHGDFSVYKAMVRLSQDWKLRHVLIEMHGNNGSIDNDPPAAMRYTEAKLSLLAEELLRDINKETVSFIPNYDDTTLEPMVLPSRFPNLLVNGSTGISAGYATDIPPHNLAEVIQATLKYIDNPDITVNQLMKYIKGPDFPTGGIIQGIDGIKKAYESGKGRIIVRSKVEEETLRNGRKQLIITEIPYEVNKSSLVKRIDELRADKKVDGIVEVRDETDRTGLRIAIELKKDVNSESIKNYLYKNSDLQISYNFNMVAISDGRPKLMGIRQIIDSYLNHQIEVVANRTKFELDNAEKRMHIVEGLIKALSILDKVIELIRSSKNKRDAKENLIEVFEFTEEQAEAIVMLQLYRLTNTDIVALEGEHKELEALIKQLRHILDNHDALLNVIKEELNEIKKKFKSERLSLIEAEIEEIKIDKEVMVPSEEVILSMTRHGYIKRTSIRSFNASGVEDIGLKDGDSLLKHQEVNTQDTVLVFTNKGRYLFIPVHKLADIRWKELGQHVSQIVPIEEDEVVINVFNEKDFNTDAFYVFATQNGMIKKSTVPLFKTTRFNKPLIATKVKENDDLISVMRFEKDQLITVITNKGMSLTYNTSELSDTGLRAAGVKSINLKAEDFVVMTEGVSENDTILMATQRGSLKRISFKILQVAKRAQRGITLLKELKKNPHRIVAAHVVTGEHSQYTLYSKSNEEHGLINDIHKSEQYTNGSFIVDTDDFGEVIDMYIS
Sequence (P0C1S7 whole entry): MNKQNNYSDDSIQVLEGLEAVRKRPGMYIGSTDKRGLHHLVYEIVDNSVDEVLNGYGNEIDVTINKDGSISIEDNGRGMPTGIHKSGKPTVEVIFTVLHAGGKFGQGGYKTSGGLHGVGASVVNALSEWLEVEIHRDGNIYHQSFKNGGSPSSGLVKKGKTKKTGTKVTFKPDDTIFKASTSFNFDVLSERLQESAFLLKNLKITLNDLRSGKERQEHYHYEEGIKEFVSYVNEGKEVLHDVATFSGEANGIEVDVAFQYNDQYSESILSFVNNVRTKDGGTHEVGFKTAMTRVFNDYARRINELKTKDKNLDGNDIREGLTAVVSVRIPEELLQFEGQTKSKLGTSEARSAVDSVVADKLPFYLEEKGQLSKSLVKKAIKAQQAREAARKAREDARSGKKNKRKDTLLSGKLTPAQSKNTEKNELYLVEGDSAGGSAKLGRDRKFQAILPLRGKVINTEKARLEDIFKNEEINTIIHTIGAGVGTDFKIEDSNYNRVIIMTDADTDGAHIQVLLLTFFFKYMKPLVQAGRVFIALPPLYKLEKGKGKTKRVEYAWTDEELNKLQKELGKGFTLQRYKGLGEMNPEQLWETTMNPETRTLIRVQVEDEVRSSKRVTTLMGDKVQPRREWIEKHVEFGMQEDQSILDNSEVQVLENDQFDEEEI
Test: Inhibition of Staphylococcus aureus DNA topoisomerase 4 subunit ParC2/ParE2 after 60 mins by malachite green staining assay
Give pIC50 for every item shown.
Answers are plain numbers, as −log10 of the molar value.

CCNC(=O)Nc1nc2cc(-c3cnc(N4CCC(C)(C(=O)O)CC4)nc3)cc(-c3ccccn3)c2s1 = 7.81

With those in mind, consider the next molecule.
Noted for CCNC(=O)Nc1nc2cc(-c3cnc(N4CCC(C(=O)O)CC4)nc3)cc(-c3ccccn3)c2s1 : its pIC50 reads 7.62
